tested on: UACC-62 melanoma; test: NCI tumour cell line growth inhibition, 48 h
Recorded GI50 values for a group of compounds are listed next.

[
  {
    "compound": "COc1cc(OC)c(NC(=O)c2cc3ccccc3cc2O)cc1Cl",
    "target.or.system": "UACC-62 melanoma",
    "GI50": "2.87 µM"
  },
  {
    "compound": "O=C(NN=C1CCCCC1)c1[nH]c2ccc(F)cc2c1-c1ccccc1",
    "target.or.system": "UACC-62 melanoma",
    "GI50": "38.6 µM"
  },
  {
    "compound": "COc1cc(O)c2c(c1)C(=O)c1cc3c(c(O)c1C2=O)C(OC1OC(C)C(O)C(O)C1OC)C(OC)C(C)(O)C3=O (stereo unspecified)",
    "target.or.system": "UACC-62 melanoma",
    "GI50": "1.68 µM"
  },
  {
    "compound": "C/C(=C\\COc1c2c(cc3c1CCO3)OC1(C=C2)OC(CC/C(C)=C/COc2c3ccoc3cc3oc(=O)ccc23)C(C)(C)O1)CCC(O)C(C)(C)O (stereo unspecified)",
    "target.or.system": "UACC-62 melanoma",
    "GI50": "4.87 µM"
  },
  {
    "compound": "O=C(NO)c1ccc(Cn2c(=O)n(-c3ccccc3F)c(=O)c3ccccc32)cc1",
    "target.or.system": "UACC-62 melanoma",
    "GI50": "1.24 µM"
  },
  {
    "compound": "Cc1ncsc1-c1ccc(CNC(=O)[C@@H]2C[C@@H](O)CN2C(=O)[C@@H](NC(=O)C2(C#N)CC2)C(C)(C)C)cc1",
    "target.or.system": "UACC-62 melanoma",
    "GI50": "62.6 µM"
  }
]

All figures here come from PubChem BioAssay (NCI).
